In this section we review reported growth values for a set of molecules.
tested on: HCC-2998 colon; assay: NCI-60 one-dose screen, 48 h (100 = growth as untreated, 0 = no growth, -100 = all killed); conditions: 10 µM unless noted
About 83,000 compounds went through this panel and 20% of them were active in at least one assay; those are over-represented in the sample as a whole.
Observed Property: growth (%)

Molecule	System Tested	Observed Property	Quantitative Readout
CN1CCN(Cc2ccc(NC(=O)c3cncc(C#Cc4cnc5ccc(O[C@H]6CCOC6)nn45)c3)cc2C(F)(F)F)CC1	HCC-2998 colon	growth	-61.3
O=c1c2c(O)cccc2oc2c3c(cc(O)c12)O[C@H]1OC=C[C@@H]31	HCC-2998 colon	growth	63.8
COc1ccc(C(=O)n2cc(C=O)c3ccccc32)cc1	HCC-2998 colon	growth	104
O=C1c2c(c3c4cc(Br)ccc4[nH]c3c3ccc4ccccc4c23)C(=O)N1CCN1CCCCC1	HCC-2998 colon	growth	2.69
Cn1cc2c(c1)-c1c(sc3nc(-c4ccc(NC(=O)Nc5cc(C(C)(C)C)on5)cc4)cn13)CC2	HCC-2998 colon	growth	63.1
C/C(=N\NC(=S)Nc1ccc(Br)cc1)c1cc2ccccc2oc1=O	HCC-2998 colon	growth	29.8
CCC(CC)N1C(=O)/C(=c2\sc3n(c2=O)C2C(NN=3)N(CC)C(=O)N2CC)c2ccccc21 (configuration not stated)	HCC-2998 colon	growth	21.7
CC1(C)CC[C@]2(C(=O)N3CCCN(CC#N)CC3)CC[C@]3(C)C(=CC[C@@H]4[C@@]5(C)CC[C@H](O)C(C)(C)[C@@H]5CC[C@]43C)[C@H]2C1	HCC-2998 colon	growth	71.2
COc1cc(C2CC(c3ccc(Nc4nc(NCCO)nc(Nc5ccc(Cl)cc5)n4)cc3)=Nc3c(N)nc(N)nc3N2)cc(OC)c1OC (configuration not stated)	HCC-2998 colon	growth	94.5
COc1ccc(OC)c([C@H]2c3[nH]c4ccccc4c3C[C@H]3C(=O)N(CCCCCCC(=O)NO)CC(=O)N23)c1	HCC-2998 colon	growth	99.9
C(=C(\C1=NCCN1)n1cnc2ccccc21)/c1ccc2ccccc2c1	HCC-2998 colon	growth	71.5
CCN1C(=O)N(CC)C2SC(N/N=C/c3ccc(OC)cc3)=NC21 (configuration not stated)	HCC-2998 colon	growth	13.5
CCNC(=O)Oc1ccc(/C(=C(/C)c2ccccc2)c2ccc(OCCN3CCCC3)cc2)cc1	HCC-2998 colon	growth	93.4
CC1(C)CC[C@]2(C(=O)O)CC[C@]3(C)C(=CCC4[C@@]5(C)C[C@@H](O)[C@@H]6OC(c7cccc([N+](=O)[O-])c7)OC[C@@]6(C)C5CC[C@]43C)C2C1 (some centres not stated)	HCC-2998 colon	growth	42
COc1cc2c3c(n(CCCNC4CCCCC4)c(=O)c2cc1OC)-c1cc2c(cc1C3=O)OCO2	HCC-2998 colon	growth	73.3
CCN1C(=O)N(CC)C2SC(N/N=C/c3ccccc3)=NC21 (configuration not stated)	HCC-2998 colon	growth	12.7
CS(=O)c1nccc(-c2c(-c3ccc(F)c(OCc4ccc(F)cc4)c3)nc3sccn23)n1 (configuration not stated)	HCC-2998 colon	growth	10.2

###

test system: MALME-3M melanoma; test: NCI-60 one-dose screen, 48 h; conditions: 10 µM unless noted
The panel holds about 83,000 compounds, 20% with a hit somewhere; the sample as a whole holds those more often. Active and inactive are the calls of the source. Rule for the calls: active = growth percent below 10; inactive = the rest.
Possible outcomes: true (1) (active), false (0) (inactive)

> print(dat)
                              smiles.string  assigned.label
1  CNC(=O)c1cc(Oc2ccc3nc(NC(=O)c4cc(C)cc(C)c4)sc3c2)ccn1       false (0)
2  NNC(=O)c1sc2nc(-c3cnccn3)cc(-c3cccs3)c2c1N       false (0)
3  CN1CCN(c2ccc(C(=O)/C=C/c3ccc(Cl)c(C(F)(F)F)c3)cc2)CC1       false (0)
4  COc1ccc(-c2cc(-c3cccc4ccccc34)n3c(n2)nc2ccccc23)cc1OC       false (0)
5  COc1ccc(-c2oc3cc(O)cc(O)c3c(=O)c2OC)cc1O       false (0)
6  O=C(NCCCCCCNC(=O)c1c2c(nc3ccccc13)-c1cccnc1SC2)c1c2c(nc3ccccc13)-c1cccnc1SC2        true (1)
7  Oc1ccc(CSc2nnc(-c3ccc(Oc4ccccc4)cc3)o2)c2cccnc12       false (0)
8  NS(=O)(=O)c1ccc(Nc2nc(N/N=C/c3ccc([N+](=O)[O-])cc3)nc(Nc3ccccc3)n2)cc1       false (0)
9  COC[C@]12CC[C@@H](C)[C@H](C)[C@H]1C1=CC[C@@H]3[C@@]4(C)CCCNC(C)(C)[C@@H]4CC[C@@]3(C)[C@]1(C)CC2        true (1)
